experiment: Human HepG2 cell viability assay in 384 well format; assay type: toxicity, cell-based; parameters: dose 125 nL, time 70.5 hour; concentration not given beside the values; settings: HepG2 cells, read-out: Inhibition
measurement kind: cytotoxicity at 70.5 h (%)

[
  {
    "compound": "CC(C)Oc1ccc(CN2CCCC(N3CCOCC3)C2)cc1CO (centres undefined)",
    "measurement kind": "cytotoxicity at 70.5 h",
    "reported result": -5.76
  },
  {
    "compound": "CC1CCN(c2ccc(=O)n(CC(=O)NCCc3ccccc3)n2)CC1",
    "measurement kind": "cytotoxicity at 70.5 h",
    "reported result": 5.19
  },
  {
    "compound": "CNc1nc(C(=O)N2C[C@H]3CC[C@@H]2CN(S(C)(=O)=O)C3)cs1",
    "measurement kind": "cytotoxicity at 70.5 h",
    "reported result": 12
  },
  {
    "compound": "O=S(=O)(NCCC(O)c1ccoc1)c1ccc(Cl)s1 (centres undefined)",
    "measurement kind": "cytotoxicity at 70.5 h",
    "reported result": -0.192
  }
]

====

assay: Human HepG2 cell viability assay in 384 well format; format: toxicity, cell-based; parameters: dose 125 nL, time 70.5 hour; concentration not given beside the values; details: HepG2 cells, read-out: Inhibition

[
  {
    "compound": "COc1c(C2CCCN2C(=O)c2cc(C3CC3)on2)c(C)nn1C (configuration not stated)",
    "cytotoxicity at 70.5 h": "-5.95%"
  },
  {
    "compound": "CC(=O)N(C)CC(=O)NC1(c2ccc(Br)cc2)CC1",
    "cytotoxicity at 70.5 h": "4.73%"
  },
  {
    "compound": "Cc1nc(N[C@H]2COC[C@@H]2N2CCCC2)c2cnn(C)c2n1",
    "cytotoxicity at 70.5 h": "-8.31%"
  },
  {
    "compound": "CC(C)N(Cc1ccc(C#N)cc1)C(=O)Nc1ccncc1",
    "cytotoxicity at 70.5 h": "-9.08%"
  },
  {
    "compound": "Cc1nc(CNC(=O)c2cc(COc3ccccc3F)[nH]n2)n[nH]1",
    "cytotoxicity at 70.5 h": "17.2%"
  },
  {
    "compound": "CNC(=O)[C@H]1C[C@@H]2CN(C(=O)Nc3ccc(F)cc3)C[C@H]1O2",
    "cytotoxicity at 70.5 h": "-0.584%"
  },
  {
    "compound": "NC(=O)NC(=O)CNC1(c2ccc(Cl)cc2)CCC1",
    "cytotoxicity at 70.5 h": "2.08%"
  },
  {
    "compound": "Cc1ccc(-c2cc(CNCCn3cc(C)cn3)on2)cc1",
    "cytotoxicity at 70.5 h": "-1.34%"
  },
  {
    "compound": "Cc1cccc(CN2CCn3cc(CNC(=O)CC4CC4)nc3C2)n1",
    "cytotoxicity at 70.5 h": "-5.24%"
  },
  {
    "compound": "CN1Cc2nc[nH]c2C[C@H]1C(=O)NC1CCCCC1",
    "cytotoxicity at 70.5 h": "-3.45%"
  },
  {
    "compound": "COCc1noc(CN2CC(Cc3ccccc3)CC2=O)n1 (configuration not stated)",
    "cytotoxicity at 70.5 h": "-20.6%"
  },
  {
    "compound": "Cc1ccc(C#N)cc1NC(=O)NC1CCCN(c2ncccn2)C1 (configuration not stated)",
    "cytotoxicity at 70.5 h": "-0.699%"
  },
  {
    "compound": "COCCCNC(=O)c1cc(-c2ccc(OC)cc2)nn1C",
    "cytotoxicity at 70.5 h": "4.27%"
  },
  {
    "compound": "O=C(c1cnccn1)N1CCc2ncnc(-c3cccnc3)c2CC1",
    "cytotoxicity at 70.5 h": "-16.1%"
  },
  {
    "compound": "Cc1ccc(N2CC[C@H]3O[C@@H](C(=O)N4CCCCO4)CC[C@H]32)nn1",
    "cytotoxicity at 70.5 h": "-4.7%"
  },
  {
    "compound": "c1cnn(CC2CN(Cc3csc(C4CCCCC4)n3)CCO2)c1 (configuration not stated)",
    "cytotoxicity at 70.5 h": "-0.469%"
  },
  {
    "compound": "CS(=O)(=O)N1CCCC1c1cccc(Nc2nccs2)n1 (configuration not stated)",
    "cytotoxicity at 70.5 h": "28.9%"
  },
  {
    "compound": "NCc1cnn(-c2ccccc2C(=O)NCCc2ccccn2)c1",
    "cytotoxicity at 70.5 h": "-6.02%"
  },
  {
    "compound": "OC(COCc1ccco1)CSc1nnc2ccccn12 (configuration not stated)",
    "cytotoxicity at 70.5 h": "-6.03%"
  },
  {
    "compound": "CCN(Cc1cccc2c1OCO2)C(=O)NCCOC",
    "cytotoxicity at 70.5 h": "3.33%"
  },
  {
    "compound": "CCN1CCN(c2ccc(F)cc2C(C)NCc2ccccn2)CC1 (configuration not stated)",
    "cytotoxicity at 70.5 h": "13.7%"
  },
  {
    "compound": "C=C(C)CN1CCC(NC(=O)NCCc2ccc(N(C)C)cc2)CC1",
    "cytotoxicity at 70.5 h": "12.7%"
  },
  {
    "compound": "Cn1ccc(CN2CCC(c3ccccc3)CC2)cc1=O",
    "cytotoxicity at 70.5 h": "-8.13%"
  },
  {
    "compound": "CN1CC[C@H](c2nnc(Cc3c[nH]c4ccccc34)o2)C1",
    "cytotoxicity at 70.5 h": "-1.52%"
  },
  {
    "compound": "Cc1cc(N[C@H]2CCCN(Cc3ccccc3)C2)n2nc(C)cc2n1",
    "cytotoxicity at 70.5 h": "1.66%"
  },
  {
    "compound": "CCCC(O)CN1CC(C)(C)CN(C(=O)c2ccc(SC)cc2)CC1=O (configuration not stated)",
    "cytotoxicity at 70.5 h": "-8.02%"
  },
  {
    "compound": "CS(=O)(=O)c1cccc(C(=O)NCC2(c3ccccc3)CC2)c1",
    "cytotoxicity at 70.5 h": "-11.2%"
  },
  {
    "compound": "CC(C)c1ccsc1C(=O)N1CCCN(Cc2cscn2)CC1",
    "cytotoxicity at 70.5 h": "15.1%"
  },
  {
    "compound": "CC(=O)N(CCc1nc(-c2cc(C(N)=O)co2)cs1)C(C)C",
    "cytotoxicity at 70.5 h": "2.32%"
  },
  {
    "compound": "Cc1nc(CN2CCc3ncnc(C)c3CC2)cs1",
    "cytotoxicity at 70.5 h": "-6.23%"
  },
  {
    "compound": "CC[C@@H]1N(CC2CCC2)CCC[C@]12CCC(=O)N2Cc1ccncc1",
    "cytotoxicity at 70.5 h": "-4.74%"
  },
  {
    "compound": "CCN(Cc1ccoc1)C(=O)NC1CCN(CC2CCCC2)CC1",
    "cytotoxicity at 70.5 h": "-6.01%"
  },
  {
    "compound": "Cc1cc(CN(C)C(=O)NC(C)c2nncn2C)no1 (configuration not stated)",
    "cytotoxicity at 70.5 h": "-5.64%"
  },
  {
    "compound": "Cc1ccc(CNCc2cc(Br)c3c(c2)OCO3)cc1",
    "cytotoxicity at 70.5 h": "-5.25%"
  },
  {
    "compound": "O=C(NCC1CC1)[C@@H]1CC[C@@H]2[C@@H](CCN2CCOCc2ccccc2)O1",
    "cytotoxicity at 70.5 h": "-9.94%"
  },
  {
    "compound": "CCCN1CCN(C(=O)CCn2cccc2)CC1",
    "cytotoxicity at 70.5 h": "-5.28%"
  },
  {
    "compound": "CC(C)Nc1nc2c(s1)C(=O)CN(C)C2",
    "cytotoxicity at 70.5 h": "4.07%"
  },
  {
    "compound": "C=C(C)COc1cccc(CNC(CC(C)C)c2ncnn2C)c1 (configuration not stated)",
    "cytotoxicity at 70.5 h": "-3.16%"
  },
  {
    "compound": "CN(C)c1nccc(N(C)C2CCCCC2)n1",
    "cytotoxicity at 70.5 h": "-4.22%"
  },
  {
    "compound": "CC(=O)NCCCNCc1ccc(Cl)c2cccnc12",
    "cytotoxicity at 70.5 h": "0.472%"
  },
  {
    "compound": "Cc1n[nH]cc1CNCC1(c2ccc3c(c2)OCO3)CCOCC1",
    "cytotoxicity at 70.5 h": "-5.66%"
  },
  {
    "compound": "CN(C)c1ccc(NC(=O)N2CCCCC2c2ncc[nH]2)cn1 (configuration not stated)",
    "cytotoxicity at 70.5 h": "14.8%"
  }
]
